assay_method_text: Pharmacokinetics in cynomolgus monkey
Type: in vivo
condition_label: in vivo, IV infusion (15 min), 1 mg/kg, read-out: Vdss
Starred links: 1 amine or outer side, 2 acyl side, 3 side chain; linkers in the order of their positions; H or OH if unused. Positions of bridges follow the written chain, without caps; N, C: chain ends. Non-standard residues stand in square brackets, D forms with d. Chains are numbered I, II in the order given. X1 = O=C(CCOCCOCCOCCN(CCOCCOCCOCCn1cc(CCC(=O)[*:2])nn1)CCOCCOCCOCCn1cc(CCC(=O)[*:3])nn1)[*:1]; TATA = O=C(CC[*:1])N1CN(C(=O)CC[*:2])CN(C(=O)CC[*:3])C1; Hyp = O=C(O)[C@@H]1C[C@@H](O)CN1; hArg = N=C(N)NCCCC[C@H](N)C(=O)O; tBuAla = CC(C)(C)C[C@H](N)C(=O)O; Nle = CCCC[C@H](N)C(=O)O
measured_property: Vd (L/kg)
Answer format: numeric, L/kg implied, no suffix.

Fill in the blank: the reported Vd of I: A[hArg]DC[Hyp]LVNPLCLHP[dD]W[hArg]C-NH2 / II: Ac-C[tBuAla]PE[dK]PYCFADPY[Nle]CA-NH2 / III: Ac-C[tBuAla]PE[dK]PYCFADPY[Nle]CA-NH2 (linker I:4-I:11-I:18, II:1-II:8-II:15, III:1-III:8-III:15 via TATA; linker I:N-II:5-III:5 via X1) [BCY12491] is ____.
0.36

====

assay_method_text: Pharmacokinetics in cynomolgus monkey
Assay type: in vivo
condition_label: plasma, 9.2 mg/kg IV infusion (15 min), read-out: clearance
Starred links: 1 amine or outer side, 2 acyl side, 3 side chain; linkers in the order of their positions; H or OH if unused. Positions of bridges follow the written chain, without caps; N, C: chain ends. Non-standard residues stand in square brackets, D forms with d. Chains are numbered I, II in the order given. X1 = O=C(CCOCCOCCOCCN(CCOCCOCCOCCn1cc(CCC(=O)[*:2])nn1)CCOCCOCCOCCn1cc(CCC(=O)[*:3])nn1)[*:1]; TATA = O=C(CC[*:1])N1CN(C(=O)CC[*:2])CN(C(=O)CC[*:3])C1; d1Nal = N[C@H](Cc1cccc2ccccc12)C(=O)O; Hyp = O=C(O)[C@@H]1C[C@@H](O)CN1; hArg = N=C(N)NCCCC[C@H](N)C(=O)O; tBuAla = CC(C)(C)C[C@H](N)C(=O)O; Nle = CCCC[C@H](N)C(=O)O
measured_property: clearance (mL/min/kg)
Answer format: numeric, mL/min/kg implied, no suffix.

Fill in the blank: the reported clearance of I: A[hArg]DC[Hyp]LVNPLCLEP[d1Nal]WTC-NH2 / II: Ac-C[tBuAla]PE[dK]PYCFADPY[Nle]CA-NH2 / III: Ac-C[tBuAla]PE[dK]PYCFADPY[Nle]CA-NH2 (linker I:4-I:11-I:18, II:1-II:8-II:15, III:1-III:8-III:15 via TATA; linker I:N-II:5-III:5 via X1) [BCY13272] is ____.
4.1

====

tested_system: CD137 (Homo sapiens, UniProt Q07011)
Sequence (Q07011 24-255): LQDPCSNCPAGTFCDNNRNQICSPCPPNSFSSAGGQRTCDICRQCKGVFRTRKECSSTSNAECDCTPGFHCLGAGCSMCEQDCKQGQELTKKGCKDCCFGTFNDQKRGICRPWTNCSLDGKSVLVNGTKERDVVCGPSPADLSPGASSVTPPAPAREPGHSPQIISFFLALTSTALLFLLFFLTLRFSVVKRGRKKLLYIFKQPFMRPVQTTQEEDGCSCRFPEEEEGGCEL
assay_method_text: CD137 reporter assay (Promega, Jurkat cells) in co-culture with EphA2-expressing tumor cells (A549, PC3, HT29)
Format: cell-based
Set-up: host or cells: Jurkat reporter cells
condition_label: co-culture with PC3; versus BCY9173
Starred links: 1 amine or outer side, 2 acyl side, 3 side chain; linkers in the order of their positions; H or OH if unused. Positions of bridges follow the written chain, without caps; N, C: chain ends. Non-standard residues stand in square brackets, D forms with d. Primed or numbered codes have the meaning given here. Chains are numbered I, II in the order given. No end group written: not given here. PYA″ = 4-pentynoic acid, acylating the D-Lys side chain, alkyne clicked to the linker azide; PYA(3) = 4-pentynoic acid, on D-Lys NZ, clicked (triazole) to the linker azide; TATA = O=C(CC[*:1])N1CN(C(=O)CC[*:2])CN(C(=O)CC[*:3])C1; Ala(4-thiazolyl) = N[C@@H](Cc1cscn1)C(=O)O; Hyp = O=C(O)[C@@H]1C[C@@H](O)CN1; hArg = N=C(N)NCCCC[C@H](N)C(=O)O; tBuAla = CC(C)(C)C[C@H](N)C(=O)O; Nle = CCCC[C@H](N)C(=O)O
Hi there, I'd appreciate the recorded Fold Improvement over Emax for every entry that follows.
# number then unit; no other words

Form: Entry = BCY14052: EphA2:CD137 1:2; BCY13920 + 2x BCY8928; linker N-(acid-PEG3)-N-bis(PEG3-azide) (peptide 1 A[hArg]DC[Hyp]LVNPLCLFP[dD]W[hArg]C; peptide 2 Ac-C[tBuAla]PE[dK](PYA″)PYCFADPY[Nle]CA; linker I:4-I:11-I:18 via TATA; linker II:1-II:8-II:15 via TATA (inferred); not fully specified (N-terminus, bridges); also: 2x chain 2 (2x BCY8928) on linker) | System = CD137 (Homo sapiens, UniProt Q07011) | Fold Improvement over Emax = ____
1.89 fold

Form: Entry = BCY12725: EphA2:CD137 1:2; BCY9594 + 2x BCY12147; linker N-(acid-PEG3)-N-bis(PEG3-azide) (peptide 1 A[hArg]DC[Hyp]LVNPLCLHP[dD]W[hArg]C; peptide 2 Ac-C[tBuAla]PE[dK](PYA(3))PYCFANPY[Nle]C; linker I:4-I:11-I:18, II:1-II:8-II:15 via TATA; not fully specified (N-terminus, bridges); also: chain 2 present twice on linker, EphA2:CD137 1:2) | System = CD137 (Homo sapiens, UniProt Q07011) | Fold Improvement over Emax = ____
0.7 fold

Form: Entry = BCY14051: EphA2:CD137 1:2; BCY13919 + 2x BCY8928; linker N-(acid-PEG3)-N-bis(PEG3-azide) (peptide 1 A[hArg]DC[Hyp]LVNPLCL[Ala(4-thiazolyl)]P[dD]W[hArg]C; peptide 2 Ac-C[tBuAla]PE[dK](PYA″)PYCFADPY[Nle]CA; linker I:4-I:11-I:18, II:1-II:8-II:15 via TATA (inferred); not fully specified (N-terminus, bridges); also: 2x chain 2 (2x BCY8928) on linker) | System = CD137 (Homo sapiens, UniProt Q07011) | Fold Improvement over Emax = ____
1.88 fold

====

assay_method_text: Pharmacokinetics in SD rats
Format: in vivo
condition_label: male, SD, rat, plasma; 3.6 mg/kg IV infusion (15 min), n=3; read-out: volume of distribution at steady state (Vdss)
Starred links: 1 amine or outer side, 2 acyl side, 3 side chain; linkers in the order of their positions; H or OH if unused. Positions of bridges follow the written chain, without caps; N, C: chain ends. Non-standard residues stand in square brackets, D forms with d. Chains are numbered I, II in the order given. X1 = O=C(CCOCCOCCOCCN(CCOCCOCCOCCn1cc(CCC(=O)[*:2])nn1)CCOCCOCCOCCn1cc(CCC(=O)[*:3])nn1)[*:1]; TATA = O=C(CC[*:1])N1CN(C(=O)CC[*:2])CN(C(=O)CC[*:3])C1; d1Nal = N[C@H](Cc1cccc2ccccc12)C(=O)O; Hyp = O=C(O)[C@@H]1C[C@@H](O)CN1; hArg = N=C(N)NCCCC[C@H](N)C(=O)O; tBuAla = CC(C)(C)C[C@H](N)C(=O)O; Nle = CCCC[C@H](N)C(=O)O
measured_property: Vd
# number then unit; no other words

Fill in the blank: the reported Vd of I: A[hArg]DC[Hyp]LVNPLCLEP[d1Nal]WTC-NH2 / II: Ac-C[tBuAla]PE[dK]PYCFADPY[Nle]CA-NH2 / III: Ac-C[tBuAla]PE[dK]PYCFADPY[Nle]CA-NH2 (linker I:4-I:11-I:18, II:1-II:8-II:15, III:1-III:8-III:15 via TATA; linker I:N-II:5-III:5 via X1) [BCY13272] is ____.
1 L/kg

====

assay_method_text: Pharmacokinetics in cynomolgus monkey
Format: in vivo
condition_label: in vivo, IV infusion (15 min), 1 mg/kg, read-out: Clp
Starred links: 1 amine or outer side, 2 acyl side, 3 side chain; linkers in the order of their positions; H or OH if unused. Positions of bridges follow the written chain, without caps; N, C: chain ends. Non-standard residues stand in square brackets, D forms with d. Chains are numbered I, II in the order given. X1 = O=C(CCOCCOCCOCCN(CCOCCOCCOCCn1cc(CCC(=O)[*:2])nn1)CCOCCOCCOCCn1cc(CCC(=O)[*:3])nn1)[*:1]; TATA = O=C(CC[*:1])N1CN(C(=O)CC[*:2])CN(C(=O)CC[*:3])C1; Hyp = O=C(O)[C@@H]1C[C@@H](O)CN1; hArg = N=C(N)NCCCC[C@H](N)C(=O)O; tBuAla = CC(C)(C)C[C@H](N)C(=O)O; Nle = CCCC[C@H](N)C(=O)O
measured_property: clearance (mL/min/kg)
Answer format: numeric, mL/min/kg implied, no suffix.

Fill in the blank: the reported clearance of I: A[hArg]DC[Hyp]LVNPLCLHP[dD]W[hArg]C-NH2 / II: Ac-C[tBuAla]PE[dK]PYCFADPY[Nle]CA-NH2 / III: Ac-C[tBuAla]PE[dK]PYCFADPY[Nle]CA-NH2 (linker I:4-I:11-I:18, II:1-II:8-II:15, III:1-III:8-III:15 via TATA; linker I:N-II:5-III:5 via X1) [BCY12491] is ____.
3
